Target: HIV reverse transcriptase WT (Human immunodeficiency virus type 1 group M subtype B)
Assay: Enzyme assay, reverse transcriptase WT
Type: biochemical, HIV-1
Item-by-item account of IC50
// note: answer is a bare numeric in nM

{"columns": ["compound", "reading"],
 "data": [
  ["CN(C)P(=O)(c1ccccc1)c1c(C(N)=O)[nH]c2ccc(Cl)cc12 (centres unmarked) [Compound 31a]", 1400],
  ["CCOP(=O)(c1ccccc1)c1c(C(N)=O)[nH]c2ccc(Cl)cc12 (centres unmarked)", 722],
  ["COP(=O)(c1ccccc1)c1c(C(N)=O)[nH]c2ccc(Cl)cc12 (centres unmarked)", 309]
]}

Consider now this further compound.
In: Request body: readout IC50, system HIV reverse transcriptase WT (Human immunodeficiency virus type 1 group M subtype B), query COP(=O)(c1ccccc1)c1c(C(=O)NCc2ccncc2)[nH]c2ccc(Cl)cc12 (centres unmarked) [Compound 18ar] . Return the value.
Out: 156

====

Test system: HIV BH-10 WT
Assay: Cell-based assay using BH-10 cells, wild type
Conditions: BH-10 cells, wild type; read-out: EC50 WT///B
Item-by-item account of EC50
Provide the measurement as a number trailed by its unit.

{"columns": ["molecule", "EC50"],
 "data": [
  ["COc1ccccc1P(=O)(OC)c1c(C(N)=O)[nH]c2ccc(Cl)cc12 (centres unmarked)", "1.7 nM"],
  ["CCOP(=O)(c1ccc(C)c(C)c1)c1c(C(N)=O)[nH]c2ccc(Cl)cc12 (centres unmarked)", "2.6 nM"],
  ["COP(=O)(c1cc(C)cc(C)c1)c1c(C(=O)NCc2c(F)cccc2F)[nH]c2ccc(Cl)cc12 (centres unmarked)", "7 nM"],
  ["COP(=O)(c1ccccc1C)c1c(C(N)=O)[nH]c2ccc(Cl)cc12 (centres unmarked)", "1.3 nM"],
  ["CCOP(=O)(c1cc(C)ccc1C)c1c(C(N)=O)[nH]c2ccc(Cl)cc12 (centres unmarked)", "0.2 nM"],
  ["COP(=O)(c1cc(F)cc(C#N)c1)c1c(C(N)=O)[nH]c2ccc(Cl)cc12 (centres unmarked)", "5.7 nM"],
  ["COP(=O)(c1cc(C)cc(C)c1)c1c(C(=O)NCc2c(F)ccc(F)c2F)[nH]c2ccc(Cl)cc12 (centres unmarked)", "17.9 nM"]
]}

Consider now this further molecule.
In: Returns the measured EC50 for the input molecule. Input: COP(=O)(c1cc(C)cc(C)c1)c1c(C(=O)NCc2ccc[n+]([O-])c2)[nH]c2ccc(Cl)c(F)c12 (centres unmarked) [Compound 22j]
Out: 6.8 nM

====

Experiment: PK and oral bioavailability in the dog
Assay type: in vivo, Beagle dogs
Conditions: Beagle, plasma, IV, 1.0 mg/kg, PEG400, read-out: Vss
readout_label: Vd (L/kg)
// note: answer is a bare numeric in L/kg

{"columns": ["compound", "readout_label", "unit_abbrev", "reading"],
 "data": [
  ["COP(=O)(c1cc(C)cc(C)c1)c1c(C(=O)NCc2cc[n+]([O-])cc2)[nH]c2ccc(Cl)cc12 (centres unmarked) [Compound D]", "Vd", "L/kg", 3.72]
]}

Consider now this further compound.
In: Returns the measured Vd for the input compound. Input: COP(=O)(C1=C(C(=O)NCc2ccncc2)N=C2C=CC(Cl)=CC21)c1cc(C)cc(C)c1 (centres unmarked) [Compound N]
Out: 4.08

Each recorded value in this set is attributed to patent US7534809B2.
